Assay: Quorum luxo inducers, light production, v cholerae bh1651 luxod47e, confirmatory dose response (AID 624254)
Details: V. cholerae BH1651 luxOD47E, luciferase light induction, 6 h; at 50 µM (top of the series)
The source made the active and inactive calls. The rule behind the calls is not given here.
parameter_measured: activation (light increase)

Some molecules with known activation (light increase) results, for comparison:
Enquiry: Which value of activation (light increase) has been reported for COc1cc(C(C)=O)ccc1OCC(=O)Nc1cc(Cl)ccc1-n1cncn1 in the records?
Return: inactive

Enquiry: Please do the same for COc1ccc(C(=O)COC(=O)CNC(=O)c2ccc(Cl)cc2Cl)c(OC)c1 as well.
Return: inactive

Enquiry: Please do the same for Cc1occc1-c1nnc(SCC(=O)NCc2cccs2)n1-c1ccc(F)cc1 as well.
Return: inactive

Enquiry: Please do the same for CCCS(=O)(=O)N1CCCC(C(=O)NCCCN(C)c2ccccc2)C1 (stereo not given) as well.
Return: inactive

Others:
Enquiry: Which value of activation (light increase) has been reported for COc1ccc(Cc2nnc(NC(=O)C3CC(=O)N(c4ccccc4C)C3)s2)cc1OC (stereo not given) in the records?
Return: inactive
